testedTarget: Alpha1A (Homo sapiens, UniProt P35348)
Construct: expressed in transfected cells; host or cells: CHO (membrane fraction)
Sequence (P35348 whole entry): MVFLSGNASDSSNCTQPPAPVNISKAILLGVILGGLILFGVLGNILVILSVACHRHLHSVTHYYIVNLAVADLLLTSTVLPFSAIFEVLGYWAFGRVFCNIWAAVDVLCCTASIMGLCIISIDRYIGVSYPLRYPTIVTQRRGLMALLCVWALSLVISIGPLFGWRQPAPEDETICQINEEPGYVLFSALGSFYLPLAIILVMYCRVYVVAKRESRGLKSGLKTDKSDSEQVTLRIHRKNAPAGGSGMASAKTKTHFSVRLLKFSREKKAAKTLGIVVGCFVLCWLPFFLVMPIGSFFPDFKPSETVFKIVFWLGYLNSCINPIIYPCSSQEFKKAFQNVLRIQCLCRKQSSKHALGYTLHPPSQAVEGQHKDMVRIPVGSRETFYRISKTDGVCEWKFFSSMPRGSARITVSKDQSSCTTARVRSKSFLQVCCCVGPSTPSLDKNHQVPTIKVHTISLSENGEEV
experimentalDetails: Competitive radioligand binding, Alpha1A
testParameters: CHO membranes, 3H-prazosin 0.25 nM; read-out: pIC50 Alpha1A (converted)
Protocol: Competitive radioligand binding assays were used to determine the affinity of the test compounds for a particular receptor. […] Cell lines were established that stably express the human variant of the receptor under investigation after transfection with the appropriate cDNA (Table 1). […] Optimal membrane dilutions for binding studies were determined and aliquots were stored at −70° C. until use. […]
Task for the reader: assign each of the following compounds its reported IC50.
Answers are plain numbers, in µM.

Below are some compounds; for each one, tell me its IC50.
1. COc1cc(N)c(Cl)cc1C(=O)NC1CCN(CCCOc2ccc(F)cc2)CC1(F)F (single isomer, unassigned) [Compound (−)-17]
2. COc1cc(N)c(Cl)cc1C(=O)N[C@@H]1CCN(CCCOc2ccc(F)cc2)C[C@H]1F (single isomer, unassigned) [(−)-7]

Marked response:
[7.76, 0.398]

====

experimentalDetails: Monocrotaline-induced pulmonary arterial hypertension in the rat
Format: in vivo
testParameters: male, Sprague Dawley, in vivo, po, 50 mg/kg; rat, 50 mg p.o. once daily, 2 hours post-dosing at day 21; read-out: mean plasma concentration
measure: concentration at 2 h (ng/mL)
Numbers only, in ng/mL.

Reported concentration at 2 h of COc1cc(N)c(Cl)cc1C(=O)NC1CCN(CCCOc2ccc(F)cc2)CC1(F)F (single isomer, unassigned) [Compound (−)-17] : 1000

====

Please provide measured IC50 for the entries that follow.
testedTarget: 5HT2C (Homo sapiens)
Construct: expressed in transfected cells; host or cells: CHO (membrane fraction)
Sequence (P28335 33-458): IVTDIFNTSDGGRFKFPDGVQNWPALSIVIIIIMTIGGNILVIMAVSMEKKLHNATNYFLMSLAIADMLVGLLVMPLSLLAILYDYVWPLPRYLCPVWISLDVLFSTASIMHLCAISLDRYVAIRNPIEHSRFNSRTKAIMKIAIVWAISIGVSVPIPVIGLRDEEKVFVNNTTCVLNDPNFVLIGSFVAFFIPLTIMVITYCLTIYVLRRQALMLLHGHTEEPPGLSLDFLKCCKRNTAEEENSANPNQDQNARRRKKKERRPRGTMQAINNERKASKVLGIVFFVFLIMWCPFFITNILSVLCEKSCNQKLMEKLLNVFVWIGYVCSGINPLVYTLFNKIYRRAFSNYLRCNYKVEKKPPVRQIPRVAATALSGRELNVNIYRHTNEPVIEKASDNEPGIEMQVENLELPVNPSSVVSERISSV
experimentalDetails: Competitive radioligand binding, 5HT2C
testParameters: CHO membranes, 3H-mesulergin 1 nM; read-out: pIC50 5HT2C (converted)
One number for each entry, in µM.

molecule | resultUnit | IC50
COc1cc(N)c(Cl)cc1C(=O)NC1CCN(CCCOc2ccc(F)cc2)CC1(F)F (racemic) [(±)-17] | µM | 4.68

Consider the additional molecule presented here.
Item: COc1cc(N)c(Cl)cc1C(=O)N[C@H]1CCN(CCCOc2ccc(F)cc2)C[C@H]1F (racemic) [(±)-12] | IC50: 4.37

====

experimentalDetails: Cardiovascular effects in the anaesthetized guinea-pig
Format: in vivo
testParameters: female, plasma, iv; guinea pig, end of 5-min i.v. infusion, dose 5 mg/kg (increasing doses, 15-min intervals; total dose 9.87 mg/kg); read-out: Median plasma level (Cmax)
Procedure: Female guinea-pigs were anesthetized with sodium pentobarbital (66 mg/kg i.p.) followed by a continuous i.v. infusion of 6 mg/h of sodium pentobarbital and prepared for measurements of the surface electrocardiogram (ECG), heart rate and mean arterial blood pressure (see De Clerck et al, Fundam. Clin. Pharm.; 2002; 16: 125-140). […] Plasma concentrations of Compound (−)-17 were measured at the end of each infusion. […]
measure: Cmax (ng/mL)
Numbers only, in ng/mL.

Reported Cmax ( COc1cc(N)c(Cl)cc1C(=O)NC1CCN(CCCOc2ccc(F)cc2)CC1(F)F (single isomer, unassigned) [Compound (−)-17] ) = 12000
